System: Staphylococcus
test: Antimicrobial activity against Staphylococcus albus ATCC 8799 by broth dilution assay
Assay type: functional
applied conditions: Staphylococcus, ATCC 8799; read-out: MIC
Catalogue of MIC values

{"molecule": "COc1cc(O)c2c(c1)[C@H](O)[C@@H]1[C@@H](C2=O)[C@H](O)[C@@H](O)[C@@](C)(O)[C@@H]1O", "MIC": "> 10 µM"}
{"molecule": "COc1cc2c(c(O)c1-c1c(OC)cc(O)c3c1C(=O)C1=C(C[C@@H](O)[C@@](C)(O)[C@@H]1O)C3=O)C(=O)C1=C(C[C@](C)(O)[C@H](O)C1)C2=O", "MIC": "> 10 µM"}
{"molecule": "COc1cc(O)c2c(c1)C(=O)C1=C(C[C@@H](O)[C@@](C)(O)C1)C2=O", "MIC": "> 10 µM"}
{"molecule": "COc1cc(O)c2c(c1)[C@H](O)[C@H]1C[C@](C)(O)[C@H](O)C[C@@H]1C2=O [TETRAHYDROALTERSOLANOL B]", "MIC": "> 10 µM"}
{"molecule": "COc1cc(O)c2c(c1)C(=O)[C@@]13O[C@]1(C2=O)[C@H](O)[C@@H](O)[C@@](C)(O)[C@@H]3O", "MIC": "> 10 µM"}
{"molecule": "COc1cc(O)c2c(c1)C(=O)c1cc(C)c(O)c(-c3c(OC)cc(O)c4c3C(=O)c3cc(C)c(O)cc3C4=O)c1C2=O (single isomer, unassigned; atropisomer 2)", "MIC": "> 10 µM"}
{"molecule": "O=C(O)c1cn(C2CC2)c2cc(N3CCNCC3)c(F)cc2c1=O", "MIC": "0.6 µM"}
{"molecule": "COc1cc2c(c(O)c1-c1c(OC)cc(O)c3c1C(=O)C1=C(C[C@@H](O)[C@@](C)(O)C1)C3=O)C(=O)C1=C(C[C@](C)(O)[C@H](O)C1)C2=O", "MIC": "> 10 µM"}
{"molecule": "COc1cc(O)c2c(c1)C(=O)C1=C(C[C@@H](O)[C@@](C)(O)[C@@H]1O)C2=O", "MIC": "> 10 µM"}
{"molecule": "COc1cc(O)c2c(c1)C(=O)c1cc(C)c(OS(=O)(=O)O)cc1C2=O", "MIC": "> 10 µM"}
{"molecule": "COc1cc(O)c2c(c1)C(=O)C1=C(C[C@@H](OC(C)=O)[C@@](C)(O)C1)C2=O", "MIC": "3.9 µM"}
{"molecule": "COc1cc(O)c2c(c1-c1c(OC)cc(O)c3c1C(=O)c1cc(C)c(O)cc1C3=O)C(=O)C1=C(C2=O)[C@H](O)[C@@H](O)[C@@](C)(O)[C@@H]1O (single isomer, unassigned; atropisomer 1)", "MIC": "> 10 µM"}
{"molecule": "COc1cc(O)c2c(c1)C(=O)c1cc(C)c(O)c(-c3c(OC)cc4c(c3O)C(=O)c3cc(O)c(C)cc3C4=O)c1C2=O", "MIC": "> 10 µM"}
{"molecule": "COc1cc(O)c2c(c1)C(=O)c1cc(C)c(O)c(-c3c(OC)cc(O)c4c3C(=O)C3=C(C[C@@H](O)[C@@](C)(O)[C@@H]3O)C4=O)c1C2=O", "MIC": "> 10 µM"}
